Values compiled from patent US20160264649A1.

molecular target: HIV-1 93IN905 Env (HIV-1 strain 93IN905); assay: cell-based or functional assay
Measure name: IC50 neutralization, 18 hour virus/Ab incubation (µg/mL)
# unit: µg/mL | format: bare number

[
  {
    "Binder": "1460_G14 (PGG14) (antibody, human IgG1, kappa, V domains shown) VH: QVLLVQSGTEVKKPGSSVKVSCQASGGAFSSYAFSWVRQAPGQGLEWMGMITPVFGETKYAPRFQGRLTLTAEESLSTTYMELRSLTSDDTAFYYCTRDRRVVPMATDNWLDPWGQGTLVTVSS VL: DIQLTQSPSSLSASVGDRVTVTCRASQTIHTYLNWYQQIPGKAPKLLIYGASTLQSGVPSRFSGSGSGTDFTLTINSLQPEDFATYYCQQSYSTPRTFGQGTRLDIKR",
    "Data value": 3.17
  },
  {
    "Binder": "1496_C09 (PG9) (TCN-109) (antibody, V domains shown) VH: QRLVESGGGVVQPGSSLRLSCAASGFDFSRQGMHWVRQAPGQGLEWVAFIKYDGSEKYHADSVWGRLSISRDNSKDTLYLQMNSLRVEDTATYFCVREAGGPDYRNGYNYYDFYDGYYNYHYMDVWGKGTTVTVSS VL: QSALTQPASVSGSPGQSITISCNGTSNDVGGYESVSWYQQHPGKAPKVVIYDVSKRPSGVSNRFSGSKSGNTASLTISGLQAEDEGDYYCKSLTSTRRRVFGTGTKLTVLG",
    "Data value": 0.0619
  },
  {
    "Binder": "1495_C14 (PGC14) (antibody, human IgG1, lambda, V domains shown) VH: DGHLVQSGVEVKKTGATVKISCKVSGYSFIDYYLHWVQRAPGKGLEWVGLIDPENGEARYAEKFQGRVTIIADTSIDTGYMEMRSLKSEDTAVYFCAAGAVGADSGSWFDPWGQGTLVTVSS VL: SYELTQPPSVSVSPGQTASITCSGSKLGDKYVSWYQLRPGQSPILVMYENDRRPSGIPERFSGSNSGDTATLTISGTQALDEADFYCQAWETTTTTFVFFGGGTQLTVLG",
    "Data value": 0.146
  },
  {
    "Binder": "1443_C16 (PG16) (TCN-116) (antibody, V domains shown) VH: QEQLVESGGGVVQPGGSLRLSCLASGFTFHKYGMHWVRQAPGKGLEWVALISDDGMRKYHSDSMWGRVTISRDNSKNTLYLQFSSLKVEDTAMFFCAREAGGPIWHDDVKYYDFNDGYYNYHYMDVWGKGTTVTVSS VL: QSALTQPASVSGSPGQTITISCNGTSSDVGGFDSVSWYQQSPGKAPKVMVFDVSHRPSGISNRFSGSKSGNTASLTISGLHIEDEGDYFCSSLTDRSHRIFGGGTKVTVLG",
    "Data value": 0.255
  }
]

The record that follows has no IC50 neutralization, 18 hour virus/Ab incubation shown yet.
So what does the record say about IC50 neutralization, 18 hour virus/Ab incubation for 1456_P20 (PG20) (antibody, human IgG1, kappa, V domains shown) VH: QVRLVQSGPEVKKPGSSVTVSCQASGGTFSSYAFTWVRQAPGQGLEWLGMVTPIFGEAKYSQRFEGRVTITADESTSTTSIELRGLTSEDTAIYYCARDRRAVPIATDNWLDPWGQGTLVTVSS VL: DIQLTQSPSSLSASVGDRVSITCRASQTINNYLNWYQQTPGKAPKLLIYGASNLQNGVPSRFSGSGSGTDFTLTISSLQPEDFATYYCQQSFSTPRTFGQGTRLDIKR ? 3.84
